- method: 7-day oral toxicity study in rats
- protocol.conditions: female, Sprague Dawley, rat, in vivo; oral gavage; read-out: NOAEL for 7-days, female rats
reported.endpoint: NOAEL at 7 days
Show the value, then the unit it is measured in.

Q: Could you tell me which NOAEL at 7 days is on file for COc1ccc(C2c3[nH]c4ccc(Cl)cc4c3CCN2C(=O)Oc2ccc(Cl)cc2)cc1 (racemic) ?
Ans: 120 mg/kg/day
